species on record: Rattus norvegicus; assay type: toxicity, organism-based, Sprague-Dawley; conditions: in vivo, po, 100 mg/kg, 24 h, tissue Blood, route oral GAVAGE, dose level High, time 1 day, vehicle .5 % CMC
Description: DrugMatrix - Regimen: Single
quantity.measured: ABSOLUTE MONOCYTE (cells/µL)
Numbers only, in cells/µL.

query: Query: ABSOLUTE MONOCYTE; subject: `CN(C)CCN(Cc1cccs1)c1ccccn1`
result: 430

###

species on record: Rattus norvegicus; assay: DrugMatrix - Regimen: Daily Repeat; assay type: toxicity, organism-based, Sprague-Dawley; parameters: regimen Daily Repeat, gender Male, age 6-8 weeks; settings: in vivo, po, 0 mg/kg, 72 h, tissue Blood, route oral GAVAGE, dose level Control, time 3 day, vehicle 100 % WATER
Hi there, I'd appreciate the recorded MEAN CORPUSCULAR HEMOGLOBIN for every entry that follows.
Write the figure, then the unit, nothing else.

Example entries and their recorded answers appear below.
NC(=O)c1cccnc1 [NIACINAMIDE] :: 24.35 pg
CCCC(C)C1(CC)C(=O)NC(=O)NC1=O (stereo unspecified) :: 24.5 pg
CN(C)C(=O)Oc1cccc([N+](C)(C)C)c1.[Br-] [NEOSTIGMINE BROMIDE] :: 24.5 pg
CNC1=Nc2ccc(Cl)cc2C(c2ccccc2)=[N+]([O-])C1 [CHLORDIAZEPOXIDE] :: 24.62 pg
C#Cc1cccc(Nc2ncnc3cc(OCCOC)c(OCCOC)cc23)c1 :: 21.47 pg

# map each compound to its MEAN CORPUSCULAR HEMOGLOBIN
1. CCN(C(C)=O)c1cccc(-c2ccnc3c(C#N)cnn23)c1
2. CCN(CC)CCOC(=O)C1(C2CCCCC2)CCCCC1
3. CCN(CC)CCNC(=O)c1ccc(N)cc1 [PROCAINAMIDE]
4. CN(C)CCC=C1c2ccccc2CCc2ccccc21
5. O=c1[nH]c(=O)n(C2CCCO2)cc1F (stereo unspecified)
6. NC12CC3CC(CC(C3)C1)C2

result:
25.92 pg
24.38 pg
24.2 pg
25.92 pg
24.53 pg
25.92 pg

###

organism: Rattus norvegicus; experiment: DrugMatrix - Regimen: Daily Repeat; assay type: toxicity, organism-based, Sprague-Dawley; design: regimen Daily Repeat, gender Male, age 6-8 weeks; conditions: in vivo, po, 0 mg/kg, 120 h, tissue Blood, route oral GAVAGE, dose level Control, time 5 day, […]
quantity.measured: PLATELET COUNT (x10E3/uL)
One number for each entry, in x10E3/uL.

CC(=O)Oc1ccccc1C(=O)O [ASPIRIN] :: 1052.67

List reported PLATELET COUNT for each of these compounds:
1. CS(=O)(=O)Nc1ccc([N+](=O)[O-])cc1Oc1ccccc1 [NIMESULIDE]
2. O=c1c(-c2ccc(O)cc2)coc2cc(O)cc(O)c12 [GENISTEIN]
3. c1ccoc1 [FURAN]
4. CCCCC(=O)N(Cc1ccc(-c2ccccc2-c2nnn[nH]2)cc1)[C@H](C(=O)O)C(C)C
5. CC(C)c1c(C(=O)Nc2ccccc2)c(-c2ccccc2)c(-c2ccc(F)cc2)n1CC[C@@H](O)C[C@@H](O)CC(=O)O [ATORVASTATIN]
6. CCc1ccc(CCOc2ccc(CC3SC(=O)NC3=O)cc2)nc1 (configuration not stated) [PIOGLITAZONE]

result:
1. 848.33
2. 1231.5
3. 1111
4. 941.83
5. 1231.5
6. 1035.33

###

organism: Rattus norvegicus; experiment: DrugMatrix - Regimen: Daily Repeat; type: toxicity, organism-based, Sprague-Dawley; set-up: regimen Daily Repeat, gender Male, age 6-8 weeks; settings: in vivo, po, 0 mg/kg, 120 h, tissue Blood, route oral GAVAGE, dose level Control, time 5 day, vehicle .5 % CMC
quantity.measured: BASOPHIL
Just so you know, I need the unit written after the number.

CN(C)C(=O)C(CCN1CCC(O)(c2ccc(Cl)cc2)CC1)(c1ccccc1)c1ccccc1 [LOPERAMIDE] :: 0%
COc1ccc2c(c1OC)C(=O)O[C@@H]2[C@H]1c2c(cc3c(c2OC)OCO3)CCN1C :: 1.47%
C[C@H]1[C@H](NC(=O)/C(=N\OC(C)(C)C(=O)O)c2csc(N)n2)C(=O)N1S(=O)(=O)O :: 0%
CN(C)CCN(Cc1cccs1)c1ccccn1 :: 0.78%

Give me BASOPHIL for each of these molecules, listed below.
1. CCn1cc(C(=O)O)c(=O)c2cc(F)c(N3CCNC(C)C3)c(F)c21 (centres undefined)
2. COc1cc(OC)c(C(=O)CCCN2CCCC2)c(OC)c1
3. C[C@@H]1O[C@@H](O[C@H]2C[C@@H](O)[C@]3(CO)[C@H]4[C@H](O)C[C@]5(C)[C@@H](C6=CC(=O)OC6)CC[C@]5(O)[C@@H]4CC[C@]3(O)C2)[C@H](O)[C@H](O)[C@H]1O
4. COc1ccccc1[N+](=O)[O-]

result:
1. 0%
2. 0%
3. 0%
4. 0%

query: # lookup: BASOPHIL of `C#C[C@]1(O)CC[C@H]2[C@@H]3CCC4=CC(=O)CC[C@]4(C)[C@H]3CC[C@@]21C`
result: 1.47%

###

I'd be grateful if you could share measured ASPARTATE AMINOTRANSFERASE for these entries.
organism: Rattus norvegicus; assay: DrugMatrix - Regimen: Daily Repeat; type: toxicity, organism-based, Sprague-Dawley; parameters: regimen Daily Repeat, gender Male, age 6-8 weeks; details: in vivo, po, 0 mg/kg, 120 h, tissue Plasma, route oral GAVAGE, dose level Control, time 5 day, […]

Some entries whose results are on file:
c1ccoc1 :: 65.67 u/L
CC(C)c1c(C(=O)Nc2ccccc2)c(-c2ccccc2)c(-c2ccc(F)cc2)n1CC[C@@H](O)C[C@@H](O)CC(=O)O :: 84.5 u/L
CC(=O)Oc1ccccc1C(=O)O :: 83 u/L
O=c1c(-c2ccc(O)cc2)coc2cc(O)cc(O)c12 :: 84.5 u/L
CCc1ccc(CCOc2ccc(CC3SC(=O)NC3=O)cc2)nc1 (configuration not stated) :: 71.67 u/L
CCCCC(=O)N(Cc1ccc(-c2ccccc2-c2nnn[nH]2)cc1)[C@H](C(=O)O)C(C)C :: 83.33 u/L

Next up:
query: Quick check: ASPARTATE AMINOTRANSFERASE of CS(=O)(=O)Nc1ccc([N+](=O)[O-])cc1Oc1ccccc1 [NIMESULIDE] ?
result: 81.33 u/L

###

organism: Rattus norvegicus; experiment: DrugMatrix - Regimen: Daily Repeat; type: toxicity, organism-based, Sprague-Dawley; parameters: regimen Daily Repeat, gender Male, age 6-8 weeks; details: in vivo, po, 0 mg/kg, 120 h, tissue Plasma, route oral GAVAGE, dose level Control, time 5 day, vehicle .5 % CMC
Would you kindly list SODIUM for each of these compounds?
Answers are plain numbers, in MEQ/L.

Sample answers from the record:
CCn1cc(C(=O)O)c(=O)c2cc(F)c(N3CCNC(C)C3)c(F)c21 (stereo not given) [LOMEFLOXACIN] :: 155.5
CCCNC(=O)NS(=O)(=O)c1ccc(Cl)cc1 [CHLORPROPAMIDE] :: 150.5

Batch request: SODIUM per item, same order as input.
1. CN(C)C(=O)C(CCN1CCC(O)(c2ccc(Cl)cc2)CC1)(c1ccccc1)c1ccccc1 [LOPERAMIDE]
2. CCC1=C(C)CN(C(=O)NCCc2ccc(S(=O)(=O)NC(=O)N[C@H]3CC[C@H](C)CC3)cc2)C1=O [GLIMEPIRIDE]

result:
143.03
143.03

query: Quick check: SODIUM of C#C[C@]1(O)CC[C@H]2[C@@H]3CCC4=CC(=O)CC[C@]4(C)[C@H]3CC[C@@]21C [ETHISTERONE] ?
result: 151.5

###

What CREATININE was measured for each of the following?
organism: Rattus norvegicus; assay: DrugMatrix - Regimen: Daily Repeat; type: toxicity, organism-based, Sprague-Dawley; design: regimen Daily Repeat, gender Male, age 6-8 weeks; conditions: in vivo, po, 0 mg/kg, 72 h, tissue Plasma, route oral GAVAGE, dose level Control, time 3 day, vehicle .5 % CMC
Numbers only, in mg/dL.

C[C@@H]1O[C@@H](O[C@H]2C[C@@H](O)[C@]3(CO)[C@H]4[C@H](O)C[C@]5(C)[C@@H](C6=CC(=O)OC6)CC[C@]5(O)[C@@H]4CC[C@]3(O)C2)[C@H](O)[C@H](O)[C@H]1O [OUABAIN] :: 0.17
CCCCC1=NC2(CCCC2)C(=O)N1Cc1ccc(-c2ccccc2-c2nnn[nH]2)cc1 [IRBESARTAN] :: 0.3
CCOc1nc2cccc(C(=O)O)c2n1Cc1ccc(-c2ccccc2-c2nnn[nH]2)cc1 :: 0.27
CCCNC(=O)NS(=O)(=O)c1ccc(Cl)cc1 [CHLORPROPAMIDE] :: 0.57

Go through the items and report each one's CREATININE.
1. NC(=O)N1c2ccccc2CC(=O)c2ccccc21 [OXCARBAZEPINE]
2. C[C@H]1[C@H](NC(=O)/C(=N\OC(C)(C)C(=O)O)c2csc(N)n2)C(=O)N1S(=O)(=O)O [AZTREONAM]
3. COc1ccc2c(c1OC)C(=O)O[C@@H]2[C@H]1c2c(cc3c(c2OC)OCO3)CCN1C [NOSCAPINE]
4. COc1cc(OC)c(C(=O)CCCN2CCCC2)c(OC)c1 [BUFLOMEDIL]
5. CN1C(=O)CN=C(c2ccccc2)c2cc([N+](=O)[O-])ccc21 [NIMETAZEPAM]

result:
1: 0.18; 2: 0.2; 3: 0.57; 4: 0.14; 5: 0.55

For the 3 compounds below, give their CREATININE values.
1. CN1CCN(C2=Nc3cc(Cl)ccc3Nc3ccccc32)CC1 [CLOZAPINE]
2. CCn1cc(C(=O)O)c(=O)c2cc(F)c(N3CCNC(C)C3)c(F)c21 (configuration not stated) [LOMEFLOXACIN]
3. C#C[C@]1(O)CC[C@H]2[C@@H]3CCC4=CC(=O)CC[C@]4(C)[C@H]3CC[C@@]21C [ETHISTERONE]

result:
1: 0.57; 2: 0.48; 3: 0.57
